Assay: log P determination by HPLC (EEC Directive 79/831 Annex V.A8, gradient method)
Format: physicochemical
readout: Physical data: logP
// no unit, no text: just the number

> print(dat)
                                   compound  meas.value
1  O=C(/C=C/c1c(-c2ccccc2Cl)nc2sc(-c3ccc(C(F)(F)F)cc3)nn12)NC1CCC(Cl)CC1 (stereo not drawn)        5.27
2  O=C(C=Cc1c(-c2ccccc2Cl)nc2sc(C(F)(F)F)nn12)NC(c1ccc(Cl)cc1)C(F)(F)F (stereo not drawn)        4.71
3  Cc1cn2c(/C=C/C(=O)NCC(F)(F)C(F)(F)C(F)(F)F)c(-c3ccccc3Cl)nc2s1        3.51

Task: Look up Physical data: logP for this compound: COCc1nn2c(/C=C/C(=O)NC3CCC(C(F)(F)F)CC3)c(-c3ccccc3Cl)nc2s1 (stereo not drawn)
Result: 3.4

Task: Please look up its Physical data: logP: O=C(/C=C/c1c(-c2ccc(F)cc2Cl)nc2sc(C(F)(F)F)nn12)N1CCCC(C(F)(F)F)C1 (stereo not drawn)
Result: 4.28

Task: Looking for the measured Physical data: logP of "CCN(CC)C(=O)/C=C/c1c(-c2ccc(F)cc2Cl)nc2sc(C(F)(F)F)nn12" , can you help?
Result: 3.79

Task: Recorded Physical data: logP of "O=C(/C=C/c1c(-c2ccccc2Cl)nc2sc(-c3ccc(C(F)(F)F)cc3)nn12)NCC(F)(F)C(F)(F)F" , please.
Result: 4.62

Task: Any idea what Physical data: logP was measured for "Cc1cn2c(/C=C/C(=O)NCC(F)(F)C(F)(F)F)c(-c3ccccc3Cl)nc2s1" ?
Result: 3.09

Task: I'd like to know its Physical data: logP. The compound in question is "Cc1cn2c(/C=C/C(=O)NCC(C)(C)C)c(-c3ccccc3Cl)nc2s1"
Result: 2.89

Task: Name the recorded Physical data: logP for "CC(C)(C)CNC(=O)/C=C/c1c(-c2ccccc2Cl)nc2sc(-c3ccc(C(F)(F)F)cc3)nn12" .
Result: 4.68

Task: Given the entry "Cc1csc2nc(-c3ccccc3Cl)c(/C=C/C(=O)Nc3ccc(OC(F)(F)F)cc3)n12" , report its measured Physical data: logP.
Result: 3.66

Task: For the compound Cc1cn2c(/C=C/C(=O)NC(C)C(C)(C)C)c(-c3ccccc3Cl)nc2s1 (stereo not drawn) , what Physical data: logP is on record?
Result: 3.17

Task: Would you kindly share the measured Physical data: logP for CC(C)C(NC(=O)C=Cc1c(-c2ccc(F)cc2Cl)nc2sc(C(F)(F)C(F)(F)F)nn12)C(F)(F)F (stereo not drawn) ?
Result: 4.76

Task: What does the record list as Physical data: logP for Cc1csc2nc(-c3ccccc3Cl)c(/C=C/C(=O)NC(C)C(C)(C)C)n12 (stereo not drawn) ?
Result: 2.84

Task: Entry CC(C)C(NC(=O)C=Cc1c(-c2ccc(Cl)nc2)nc2sc(C(F)(F)F)nn12)C(F)(F)F (stereo not drawn) : reported Physical data: logP = ?
Result: 3.89

---

This section presents compounds with their documented Physical data: logP values.
Assay: log P determination by HPLC (EEC Directive 79/831 Annex V.A8, gradient method)
Assay type: physicochemical

> print(dat)
                                   compound              readout  meas.value
1  O=C(/C=C/c1c(-c2ccccc2Cl)nc2sc(-c3ccc(C(F)(F)F)cc3)nn12)Nc1ccc(OC(F)(F)F)cc1  Physical data: logP        5.47
2  Cc1csc2nc(-c3ccccc3Cl)c(/C=C/C(=O)NC(C)C)n12  Physical data: logP        2.09
3  CC(C)CNC(=O)/C=C/c1c(-c2ccccc2Cl)nc2sc(C(C)(C)C)nn12  Physical data: logP        3.72
4  COCc1nn2c(/C=C/C(=O)NCC(F)(F)C(F)(F)F)c(-c3ccccc3Cl)nc2s1  Physical data: logP        3.17

Task: Entry under review: "Cc1cn2c(/C=C/C(=O)NCC(C)C)c(-c3ccccc3Cl)nc2s1" . Reported Physical data: logP?
Result: 2.64

Task: I would be grateful if you could share the reported Physical data: logP for "O=C(/C=C/c1c(-c2ccccc2Cl)nc2sc(-c3ccc(C(F)(F)F)cc3)nn12)NC1CCC1" .
Result: 4.21

Task: Need Physical data: logP of "COc1ccc(-c2nc3sc(C(F)(F)F)nn3c2/C=C/C(=O)N2CCCCC2)cc1OC" , thanks.
Result: 3.41

Task: Find the recorded Physical data: logP belonging to "CC(C)CCNC(=O)/C=C/c1c(-c2ccccc2Cl)nc2sc(-c3ccc(C(F)(F)F)cc3)nn12" and report it.
Result: 4.72

Task: Can you share its Physical data: logP? I mean this compound: "Cc1cn2c(/C=C/C(=O)NC3CCC3)c(-c3ccccc3Cl)nc2s1"
Result: 2.48

Task: Field request: Physical data: logP | item: "O=C(/C=C/c1c(-c2ccccc2Cl)nc2sc(-c3ccc(C(F)(F)F)cc3)nn12)NCC(F)(F)F"
Result: 4.21

Task: Given CC(C)(C)c1nn2c(/C=C/C(=O)NC3CCC(C(F)(F)F)CC3)c(-c3ccccc3Cl)nc2s1 (centres unmarked) , state its recorded Physical data: logP.
Result: 4.32

Task: Bench note: what Physical data: logP did "COc1ccc(-c2nc3sc(C(F)(F)F)nn3c2/C=C/C(=O)NC(C)C)cc1OC" show?
Result: 2.85

Task: Entry CC(NC(=O)/C=C/c1c(-c2ccccc2Cl)nc2sc(-c3ccc(C(F)(F)F)cc3)nn12)C(F)(F)F (centres unmarked) : reported Physical data: logP = ?
Result: 4.37

Task: Look at this compound and give its reported Physical data: logP. "COCc1nn2c(/C=C/C(=O)NCC(C)(C)C)c(-c3ccccc3Cl)nc2s1"
Result: 3.05

Task: Any idea what Physical data: logP was measured for "Cc1cn2c(/C=C/C(=O)NC3CC3)c(-c3ccccc3Cl)nc2s1" ?
Result: 2.02

Task: Recorded Physical data: logP of "COCc1nn2c(/C=C/C(=O)Nc3ccc(OC(F)(F)F)cc3)c(-c3ccccc3Cl)nc2s1" , please.
Result: 4

Task: Any idea what Physical data: logP was measured for COc1ccc(-c2nc3sc(C(F)(F)F)nn3c2/C=C/C(=O)NOC(C)c2ccccc2)cc1OC (centres unmarked) ?
Result: 3.37

Task: Any idea what its Physical data: logP is? The compound is CC(NC(=O)/C=C/c1c(-c2nccs2)nc2sc(C(F)(F)C(F)(F)F)nn12)C(F)(F)F (racemic)
Result: 3.81

---

Experiment: log P determination by HPLC (EEC Directive 79/831 Annex V.A8, gradient method)
Type: physicochemical
So basically: is Physical data: log P under 4? Then Condition met. Not under? Then Condition not met.

> print(dat)
                                   compound        group.label
1  O=C(/C=C/c1c(-c2cccc(C(F)(F)F)c2)nc2sc(C(F)(F)F)nn12)NC1CCCCC1  Condition not met

Now for another entry.
Task: In the record for "CC(C)(C)NC(=O)/C=C/c1c(-c2cccc(C(F)(F)F)c2)nc2sc(C(F)(F)F)nn12" , is Physical data: log P less than 4?
Result: Condition not met

---

Reported Physical data: logP is given for each of the following compounds.
Assay: log P determination by HPLC (EEC Directive 79/831 Annex V.A8, gradient method)
Type: physicochemical
Lab note: write the figure by itself, no unit.

> print(dat)
                                   compound              readout  meas.value
1  CC(NC(=O)/C=C/c1c(-c2ccccc2Cl)nc2sc(-c3ccc(C(F)(F)F)cc3)nn12)C(C)(C)C (stereo not shown) [Example 0848]  Physical data: logP        4.83

Task: Look at this compound and give its reported Physical data: logP. CCC(CC)NC(=O)/C=C/c1c(-c2ccc(OC)c(OC)c2)nc2sc(C(F)(F)F)nn12 [Example 0710]
Result: 3.37

Task: // Physical data: logP lookup, key: CC(C)(C)c1nn2c(/C=C/C(=O)NCC(F)(F)F)c(-c3ccccc3Cl)nc2s1 [Example 0800]
Result: 3.61

Task: What value of measured Physical data: logP is listed for CC(C)CNC(=O)/C=C/c1c(-c2ccccc2Cl)nc2sc(-c3ccc(C(F)(F)F)cc3)nn12 [Example 0838] ?
Result: 4.37

---

Assay: log P determination by HPLC (EEC Directive 79/831 Annex V.A8, gradient method)
Assay type: physicochemical
readout: Physical data (logP)
Returns: the value as a bare number; no unit string appended.

Look over these answered cases.
> print(dat)
                                   compound  meas.value
1  CCC(NC(=O)/C=C/c1c(-c2ccc(Cl)cc2)nc2sc(C(F)(F)F)nn12)c1ccccc1 (centres unmarked) [Example 0039]        4.56
2  C=CCN(C)C(=O)/C=C/c1c(-c2cccc(Cl)c2)nc2sc(C(F)(F)F)nn12 [Example 0137]         4.0
3  O=C(/C=C/c1c(-c2ccc(Cl)cc2)nc2sc(C(F)(F)F)nn12)NC1CCC1 [Example 0012]        3.81
4  O=Cc1c(-c2ccc(-c3ccccc3)cc2)nc2sc(C(F)(F)F)nn12 [IVA118]        4.08
5  O=C(O)/C=C/c1c(-c2ccc(-c3ccc(OC(F)(F)F)cc3)cc2)nc2sc(C(F)(F)F)nn12 [VA123]        4.46
6  O=Cc1c(-c2nccs2)nc2sc(C(F)(F)F)nn12 [IVA113]        2.43
7  CCC(C)NC(=O)/C=C/c1c(-c2ccc(Cl)cc2)nc2sc(C(F)(F)F)nn12 (centres unmarked) [Example 0016]        3.94
8  O=C(/C=C/c1c(-c2ccc(Cl)cc2)nc2sc(C(F)(F)F)nn12)NOCC1CC1 [Example 0060]        3.59

Task: What does the record list as Physical data (logP) for CC(NC(=O)/C=C/c1c(-c2ccccc2Cl)nc2sc(C(F)(F)F)nn12)C(F)(F)F (single isomer, unassigned) [Example 0185] ?
Result: 3.77

Task: Entry CC(ONC(=O)/C=C/c1c(-c2ccccc2Cl)nc2sc(C(F)(F)F)nn12)c1ccccc1 (racemic) [Example 0213] has what Physical data (logP)?
Result: 3.72

Task: Any idea what its Physical data (logP) is? The compound is CC(C)NC(=O)/C=C/c1c(-c2ccc(Cl)cc2)nc2sc(C(F)(F)F)nn12 [Example 0007]
Result: 3.61

Task: Form field: reported Physical data (logP) of O=C(/C=C/c1c(-c2ccc(Cl)cc2)nc2sc(C(F)(F)F)nn12)NCC1CC1 [Example 0015]
Result: 3.72

Task: Reported Physical data (logP), compound O=C(O)/C=C/c1c(-c2ccccc2Cl)nc2sc(C(F)(F)Cl)nn12 [VA-24] : ____
Result: 2.93

Task: I would be grateful if you could share the reported Physical data (logP) for O=C(O)/C=C/c1c(-c2ccccc2Cl)nc2scnn12 [VA112] .
Result: 1.84

Origin of the recorded values: patent US20090118286A1
